SUBJECT OF TEST: TrkB (or NTRK2) (Homo sapiens, UniProt Q16620)
Construct: using the soluble intracellular segment of theses receptors, containing the kinase activity
Sequence (Q16620 455-822 limits assumed): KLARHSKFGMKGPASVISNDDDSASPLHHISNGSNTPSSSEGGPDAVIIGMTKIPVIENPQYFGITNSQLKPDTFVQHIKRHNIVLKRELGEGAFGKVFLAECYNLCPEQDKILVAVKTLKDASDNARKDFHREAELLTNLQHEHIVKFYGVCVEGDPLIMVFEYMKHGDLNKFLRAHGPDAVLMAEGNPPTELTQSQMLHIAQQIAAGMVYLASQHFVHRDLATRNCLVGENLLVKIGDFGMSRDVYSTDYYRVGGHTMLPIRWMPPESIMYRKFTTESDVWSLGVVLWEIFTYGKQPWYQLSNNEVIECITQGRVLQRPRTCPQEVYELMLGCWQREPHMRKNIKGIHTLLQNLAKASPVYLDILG
PROTOCOL DESCRIPTION: In vitro kinase glo plus-based kinase assay, TrkB
MEASUREMENT CONTEXT: N=36; 40 μM ATP
QUANTITY MEASURED: pIC50
# pIC50 = -log10(concentration in molar units)

Field request: pIC50 | item: COC(=O)[C@@]1(O)C[C@H]2O[C@]1(C)n1c3ccccc3c3c4c(c5c6ccccc6n2c5c31)C(=O)NC4 [Example K252a, K252a]
7.13
